Source of measurements: patent US20230287125A1

# assay_system: T1, human PD-L1 over-expressed on CHOK1 cells (human, UniProt Q9NZQ7 19-290)
# T1 construct: whole, on cells; also called PDL1-CHOK1 cells
# T1 sequence (Q9NZQ7 19-290): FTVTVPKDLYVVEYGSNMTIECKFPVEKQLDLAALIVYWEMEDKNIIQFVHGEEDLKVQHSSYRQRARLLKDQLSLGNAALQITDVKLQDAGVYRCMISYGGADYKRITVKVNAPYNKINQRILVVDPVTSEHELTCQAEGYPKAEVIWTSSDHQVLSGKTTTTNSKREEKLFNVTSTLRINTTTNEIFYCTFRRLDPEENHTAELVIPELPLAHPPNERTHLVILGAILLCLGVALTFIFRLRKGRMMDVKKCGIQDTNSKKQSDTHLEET
# protocol_details: flow cytometry (MFI) on PDL1-CHOK1 cells; upper right panel
experimental_endpoint: pEC50
Please report pEC50 as the negative decimal logarithm of the molar concentration, giving only the number.

>  <binder>
Hu67F3G7-3 (antibody, V domains shown, humanized) VH: EVQLVQSGAEVKKPGASVKVSCKASGYIFTDFWVSWVRQAPGQGLEWIGEIYPNSGVSRYNEKFKGRVTMTVDKSISTAYMELSRLRSDDTAVYYCTKYFGYTYWFGYWGQGTLVTVSS VL: DIQMTQSPSSLSASVGDRVTITCRASKSVSTYMHWYQQKPGKAPKLLIYSASHLESGVPSRFSGSGSGTDFTLTISSLQPEDFATYYCQQSNELPVTFGGGTKVEIK

>  <pEC50>
9.78

$$$$

// next item, pEC50 requested
Supply pEC50 value. Item: Hu67F3G7-22 (antibody, V domains shown, humanized) VH: EVQLVQSGAEVKKPGASVKVSCKASGYTFTDFWVSWVRQAPGQGLEWMGEIYPNSGVSRYNEKFKGRVTMTVDKSISTAYMELSRLRSDDTAVYYCTKYFGYTYWFGYWGQGTLVTVSS VL: DIQMTQSPSSLSASVGDRVTITCRASKSVSTYMHWYQQKPGKQPKLLIYSASHLESGVPSRFSGSGSGTDFTLTISSLQPEDFATYYCQQSNELPVTFGGGTKVEIK 9.93
